Below, each of the compounds is paired with its reported IC50 value.
System: HUVEC
test_protocol: Antiangiogenic activity in HUVEC assessed as cell growth inhibition after 48 hrs by sulforhodamine B assay
Format: functional, cell-based
condition_details: Homo sapiens
Express the result in ng/mL but write the number alone.

COc1ccc(/C=C\c2cc(I)c(OC)c(I)c2)cc1OP(=O)([O-])[O-].[Na+].[Na+]    51

Task: What reported IC50 corresponds to `COc1ccc(/C=C\c2cc(I)c(OC)c(I)c2)cc1OP(=O)([O-])[O-].[K+].[K+]` on HUVEC?
Result: 4.9

Task: Ok, now `COc1ccc(/C=C\c2cc(I)c(OC)c(OC)c2)cc1OP(=O)([O-])[O-].[K+].[K+]`
Result: 0.25

Task: Ok, now `COc1ccc(/C=C\c2cc(I)c(OC)c(OC)c2)cc1O`
Result: 0.04

Task: Ok, now `COc1ccc(/C=C\c2cc(I)c(OC)c(OC)c2)cc1OP(=O)([O-])[O-].[Na+].[Na+]`
Result: 0.35

Task: Ok, now `COc1ccc(/C=C\c2cc(I)c(OC)c(I)c2)cc1O`
Result: 0.28

meta.source: ChEMBL document CHEMBL2021780
